Reported Conversion to Dicamba, Dark, Day 4 is given for each of the following compounds.
Test Method Notes: In vitro photo-release and hydrolytic release of dicamba in an aqueous medium (Example 36)
Type: physicochemical
Conditions: 0.01 mM (0.005 mM for diesters), amber (dark) bottle, Day 4
All answers are understood in %, so give the number only.

{"Compound": "CCOC(=O)CCn1nc(OC(=O)c2c(Cl)ccc(Cl)c2OC)ccc1=O [Ester 35a]", "Readout Label": "Conversion to Dicamba, Dark, Day 4", "Unit": "%", "Measured": 71}

Query: Conversion to Dicamba, Dark, Day 4; subject: COc1ccc(COC(=O)c2c(Cl)ccc(Cl)c2OC)cc1 [Ester 29a, 4-methoxybenzyl ester of dicamba] 80

COc1c(Cl)ccc(Cl)c1C(=O)Oc1ccc(OC(=O)c2c(Cl)ccc(Cl)c2OC)nn1 [Ester 17, Maleic Hydrazide Diester of Dicamba] , same question. 41

C=C(C(=O)OCC)C(OC(=O)c1c(Cl)ccc(Cl)c1OC)c1ccccc1[N+](=O)[O-] (stereo not shown) [Ester 31a] , same question. 44

* * *

Test Method Notes: In vitro photo-release and hydrolytic release of dicamba in an aqueous medium (Example 36)
Type: physicochemical
Conditions: 0.01 mM (0.005 mM for diesters), amber (dark) bottle, Day 21
Label fulfilled when Conversion to Dicamba, Dark, Day 21 is strictly below 70%; at or above that, label not fulfilled.

These recorded examples may help you get a feel for the data.
{"Compound": "COc1c(Cl)ccc(Cl)c1C(=O)Oc1ccc(=O)n(CCC=O)n1 [Ester 33a]", "Cat": "fulfilled"}
{"Compound": "COc1c(Cl)ccc(Cl)c1C(=O)Oc1nc(C(C)(C)C)cc(C(C)(C)C)c1C#N [Ester 36a]", "Cat": "fulfilled"}
{"Compound": "COc1c(Cl)ccc(Cl)c1C(=O)Oc1ccccn1 [Ester 14, 2-Hydroxypyridine Ester of Dicamba]", "Cat": "not fulfilled"}

Note: attention shifts to another entry.
Strictly below 70%: is that where Conversion to Dicamba, Dark, Day 21 of C=C(C(=O)OCC)C(OC(=O)c1c(Cl)ccc(Cl)c1OC)c1ccccc1[N+](=O)[O-] (stereo not drawn) [Ester 31a] sits? fulfilled

* * *

Test Method Notes: In vitro photo-release and hydrolytic release of dicamba in an aqueous medium (Example 35)
Type: physicochemical
Conditions: 0.01 mM ester, quartz tube, 14-hour day, 35° C., Day 14
Readout Label: Conversion to Dicamba, Light, Day 14 (%)
All answers are understood in %, so give the number only.

Completed entries (count: 3):
{"Molecule": "COc1c(Cl)ccc(Cl)c1C(=O)OCCc1ccccc1[N+](=O)[O-]", "Conversion to Dicamba, Light, Day 14 (%)": 82}
{"Molecule": "COc1c(Cl)ccc(Cl)c1C(=O)Oc1cnc2ccccc2n1 [Ester 13a, 2-quinoxalinol ester of dicamba]", "Conversion to Dicamba, Light, Day 14 (%)": 20}
{"Molecule": "COc1ccc(OC(=O)c2c(Cl)ccc(Cl)c2OC)cc1 [Ester 30a, 4-methoxyphenyl ester of dicamba]", "Conversion to Dicamba, Light, Day 14 (%)": 23}

Now consider the entry below.
Query: Conversion to Dicamba, Light, Day 14; subject: COc1c(Cl)ccc(Cl)c1C(=O)Oc1ccc(=O)n(CCC(C)=O)n1 [Ester 32a] 44
